ASSAY_INFO: chemical genetic growth profiling, strain panel (AID 1159580);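 also: tested at 20 µM; growth read once vehicle control cultures reached saturation at 30 °C; 1 = growth at the plate median or of vehicle wells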
STUDY_CONDITIONS: S. cerevisiae deletion strains, growth OD, locus YDL074C, strain BRE1, hits give low values
The campaign covered roughly 5,500 compounds. About 2,000 (36%) were called active. Inconclusive results (about 18%) are left out. This is one part of the list.
Could you please report measured normalized growth for the items listed next?
One number for each entry.

Recorded normalized growth, per entry:
Q) Which measured normalized growth value corresponds to `S=P(N1CC1)(N1CC1)N1CC1` ?
A) 1.01

Q) Given `CC(=O)N=c1sc(S(N)(=O)=O)nn1C` , state its recorded normalized growth.
A) 0.995

Q) Value lookup for normalized growth; key = `COc1cc(OC)c(OC)cc1C=O`
A) 1

Q) Returns the measured normalized growth for the input compound. Input: `Cc1cc(O)c(C)c2c1C(=O)Oc1c(C)c(O)c(C(=O)O)c(C)c1O2`
A) 1

# evaluate next
Q) Fill blank: measured normalized growth of the compound `NC(N)=NCCC[C@@H](NC(=O)[C@@H](N)Cc1ccc(O)cc1)C(=O)O` is ____.
A) 1.01

----------
ASSAY_INFO: chemical genetic growth profiling, strain panel (AID 1159580)
STUDY_CONDITIONS: S. cerevisiae deletion strains, growth OD, locus YHR079C, strain IRE1, hits give low values
About 2,000 (36%) of roughly 5,500 compounds were called active. Not shown: some 18% with an inconclusive outcome. The list shows a part of the results.
READOUT_NAME: normalized growth

Some entries whose results are on file:
Q) // normalized growth lookup, key: `CN(C)N=Nc1nc[nH]c1C(N)=O`
A) 1.02 (inactive)

Q) What value of normalized growth has been recorded for this entry: `Cc1nc2ccccn2c(=O)c1CCN1CCC(C(=O)c2ccc(F)cc2)CC1`
A) 1.05 (inactive)

Q) Fill in: normalized growth of CCN(CC)C(C)CN1c2ccccc2Sc2ccccc21 (stereo not given) is ___
A) 1.06 (inactive)

Q) Which value of normalized growth has been reported for CN(C)CCC(c1ccc(Br)cc1)c1ccccn1 (stereo not given) in the records?
A) 0.99 (inactive)

Q) Query (molecule): `C=C[C@H]1CN2CC[C@H]1C[C@@H]2[C@H](O)c1ccnc2ccccc12` ; field requested: normalized growth
A) 1 (inactive)

Give measured normalized growth for every item shown.
1. CC(CN(C)C)CN1c2ccccc2CCc2ccccc21 (stereo not given)
2. c1ccc2c(c1)CN1CCCC1=N2
3. CCCCCC1C(=O)CCC1CC(=O)OC (stereo not given)

A)
["0.981 (inactive)", "1.02 (inactive)", "0.975 (inactive)"]

// batch mode: one normalized growth value per listed entry
1. CC(CCC(=O)O)[C@H]1CCC2C3C(C[C@H](O)[C@@]21C)[C@@]1(C)CC[C@@H](O)C[C@H]1C[C@H]3O (stereo not given in full)
2. CC(CN(C)C)CN1c2ccccc2Sc2ccccc21 (stereo not given)

A)
["0.975 (inactive)", "0.993 (inactive)"]

----------
ASSAY_INFO: chemical genetic growth profiling, strain panel (AID 1159580);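 also: tested at 20 µM; growth read once vehicle control cultures reached saturation at 30 °C; 1 = growth at the plate median or of vehicle wells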
STUDY_CONDITIONS: S. cerevisiae deletion strains, growth OD, locus YER015W, strain faa2
Hit rate of the full screen: of about 5,500 compounds, about 2,000 (36%) were called active. About 18% were inconclusive and are not listed. Rule as the data show it: active = normalized growth mostly below about 0.91 (no sharp cut-off); inconclusive = no clear call, values can overlap the other calls; inactive = mostly above about 0.92. This is one part of the list.
Entry note: the call must match one of t for active, f for inactive

Q) Name the outcome recorded for `C/C=C/C(=O)N(CC)c1ccccc1C` in the assay.
A) f

---
Q) Answer briefly: the call reported for COC(=O)CCC(C)[C@H]1CCC2C3C(C[C@H](O)[C@@]21C)[C@@]1(C)CC[C@@H](O)C[C@H]1C[C@H]3O (stereo partly specified) in this assay.
A) f

Q) What did this assay record as the result for `CNCCCN1c2ccccc2CCc2ccccc21` ?
A) f

Q) For CC(CN1c2ccccc2Sc2ccccc21)N(C)C (stereo unspecified) , which call appears in the assay record?
A) t

Q) Dear all, I need the recorded test outcome for `CC(=O)N=c1sc(S(N)(=O)=O)nn1C` , thank you.
A) f

Q) Entry C=C1C2CCC3(C)C(c4ccoc4)OC(=O)CC13OC1CC(OC(C)=O)C(C)(C)C(CC(=O)OC)C12C (stereo unspecified) : call = ?
A) f

Q) Fill in: this test's call for NCC(CC(=O)O)c1ccc(Cl)cc1 (stereo unspecified) is ___
A) f

Q) Fill in: this test's call for `C[C@H](N)[C@H](O)c1cccc(O)c1` is ___
A) f

Q) Could you please tell me the result logged for CC(CCC(=O)O)[C@H]1CCC2C3CC[C@@H]4C[C@H](O)CC[C@]4(C)C3CC[C@@]21C (stereo partly specified) in this assay?
A) t

Q) State the result this test recorded for C=C1C2CC[C@@]3(C)[C@H](c4ccoc4)OC(=O)C[C@]13O[C@H]1CC(O)C(C)(C)C(CC(=O)OC)[C@@]21C (stereo partly specified) .
A) f

Q) Could you kindly confirm the outcome this assay logged for CC(=O)OCC(=O)[C@@]1(O)[C@H](OC(C)=O)CC2C3CCC4=CC(=O)C=C[C@]4(C)[C@@]3(F)[C@@H](O)C[C@@]21C (stereo partly specified) ?
A) f

----------
ASSAY_INFO: chemical genetic growth profiling, strain panel (AID 1159580);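 also: tested at 20 µM; growth read once vehicle control cultures reached saturation at 30 °C; 1 = growth at the plate median or of vehicle wells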
STUDY_CONDITIONS: S. cerevisiae deletion strains, growth OD, locus YDL017W, strain CDC7
Hit rate of the full screen: of about 5,500 compounds, about 2,000 (36%) were called active. Not shown: some 18% with an inconclusive outcome. No stated cut-off is given here; in the data, active means normalized growth mostly below about 0.91 (no sharp cut-off); inconclusive means no clear call, values can overlap the other calls; inactive means mostly above about 0.92. The list shows a part of the results.
Log the outcome using a class from active, inactive

Example results:
Q) Can you look up the reported call for `Oc1ccc(N=Nc2ccccn2)c(O)c1` for me?
A) active

Q) # lookup: test call for `NNC(=O)c1csc(Cc2c(Cl)sc3ccc(Cl)cc23)n1`
A) inactive

Q) I would be grateful if you could indicate the recorded call for `O=C(Nc1cccc2ccccc12)c1ccccc1O` .
A) active

Q) Answer briefly: the call reported for `Cc1nn(Cc2nnc(SCc3cccc(C(F)(F)F)c3)o2)c(C)c1Br` in this assay.
A) inactive

Q) Please share the test call associated with `CNC(=O)n1nc(C)c(Cc2csc3ccc(Cl)cc23)c1C` .
A) inactive

Q) Could you please tell me the result logged for `Cc1onc(-c2ccccc2)c1C(=O)Sc1ccc(C(F)(F)F)cn1` in this assay?
A) inactive

***
Q) Query: recorded result category for `O=C(CCn1c(=O)oc2ccccc21)Sc1ccc(Cl)cc1Cl` in this test
A) inactive

Q) What was the test verdict on CC1C/C(=N/Nc2ccc(Br)cc2)c2cc(Cl)ccc2S1 (stereo unspecified) ?
A) active

Q) What is the recorded call for this molecule in the test? `O=[N+]([O-])c1ccc(-c2csc(Nc3ccncc3)n2)cc1`
A) inactive

Q) Each molecule tested received a call. Report the one for `O=C(CCn1c(=O)oc2ccccc21)Sc1ccc(C(F)(F)F)cc1` .
A) inactive

Q) Which outcome did this test record for the molecule `CC(C)(C)C(=O)/C(C#N)=C/c1c(Cl)cccc1Cl` ?
A) active

Q) Could you check what this test reported for `CS(=O)(=O)c1sc(C(=O)Sc2ccc(Cl)cc2)c2c1C=CCC2` ?
A) active

Q) // return assay outcome for O=C1CSC(c2ccc(C(F)(F)F)cc2)N1c1ccc(C(F)(F)F)cc1 (stereo unspecified)
A) inactive

Q) Could you check what this test reported for `COc1ccc(OC)c(-c2ccn[nH]2)c1OCc1ccccc1` ?
A) inactive

Q) What classification did `S=C(NNc1ccccc1)Nc1cc(Cl)ccc1Cl` end up with in this test?
A) inactive

Q) # lookup: test call for `O=C1/C(=C/c2ccc(C(F)(F)F)cc2)COc2ccccc21`
A) inactive

----------
ASSAY_INFO: chemical genetic growth profiling, strain panel (AID 1159580);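 also: tested at 20 µM; growth read once vehicle control cultures reached saturation at 30 °C; 1 = growth at the plate median or of vehicle wells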
STUDY_CONDITIONS: S. cerevisiae deletion strains, growth OD, locus YHR200W, strain rpn10, hits give low values
Hit rate of the full screen: of about 5,500 compounds, about 2,000 (36%) were called active. Inconclusive results (about 18%) are left out. The list shows a part of the results.
Classify: Met when normalized growth is strictly less than 1; Not met when normalized growth is not.

Known results for compounds:
Q) Input C=C1C(C2(C)C=CC(=O)C(C)(C)C2CC(=O)OC)CC[C@@]2(C)[C@H](c3ccoc3)OC(=O)C3OC132 (some centres not stated) ; condition: normalized growth strictly below 1. Does it hold?
A) Met

Q) Could you please tell me whether normalized growth recorded for `O=C(Nc1ccccc1)c1ccccc1O` is less than 1?
A) Met

Q) Lab note: normalized growth threshold 1. Does this compound come in strictly under it? `COc1cc([C@@H]2c3cc4c(cc3[C@H](OC(C)=O)[C@H]3COC(=O)[C@@H]23)OCO4)cc(OC)c1OC`
A) Not met

Next up:
Q) Decide: normalized growth of `COc1cc([C@H]2Oc3cc([C@H]4Oc5cc(O)cc(O)c5C(=O)[C@@H]4O)ccc3O[C@@H]2CO)ccc1O` strictly below 1?
A) Met
